experiment: in vivo; settings: mouse, in vivo, iv, MTD, mice
quantityMeasured: MTD

1. COC(=O)[C@@]12OC[C@@]34C1[C@@H](OC(=O)CC(O)(C(C)C)C(C)C)C(=O)O[C@@H]3C[C@H]1C(C)=C(O)C(=O)C[C@]1(C)[C@H]4[C@@H](O)[C@@H]2O (stereo partly shown) = 60 to 65 mg/kg/day

---

test system: Colon 38 (murine colon adenocarcinoma); test: Disk diffusion assay, zone of inhibition, Colon 38; zone differentials, potency and product; type: cell-based; design: key: difference of zone of inhibition values, in zone units; conditions: difference between zone of inhibition values, Colon38 vs normal cell CFU-GM
quantityMeasured: C38ΔCFU

1) COC(=O)C12OCC34C(CC5C(C)=C(O)C(=O)CC5(C)C3C(O)C1O)OC(=O)C(OC(=O)C1=CCCC1)C24 (stereo not drawn) [15-O-(1′-cyclopentenoyl)-bruceolide] = 400
2) COC(=O)[C@@]12OC[C@]34[C@H]([C@@H](O)[C@@H]1O)[C@@]1(C)CC(=O)C(O)=C(C)[C@@H]1C[C@H]3OC(=O)[C@H](OC(=O)CC1(O)CCCC1)[C@@H]24 = 700
3) CC(=O)O[C@H]1C(=O)[C@@]2(C)[C@H]([C@H](OC(=O)c3ccccc3)[C@]3(O)C[C@H](OC(=O)[C@H](O)[C@@H](NC(=O)c4ccccc4)c4ccccc4)C(C)=C1C3(C)C)[C@]1(OC(C)=O)CO[C@@H]1C[C@@H]2O = 300

---

Quick list: C38ΔCFU per entry.
system: Colon 38 (murine colon adenocarcinoma); assay: Disk diffusion assay, zone of inhibition, Colon 38; zone differentials, potency and product; assay type: cell-based; parameters: key: difference of zone of inhibition values, in zone units; details: difference between zone of inhibition values, Colon38 vs normal cell CFU-GM
quantityMeasured: C38ΔCFU

1) COC(=O)[C@@]12OC[C@]34[C@H]([C@@H](O)[C@@H]1O)[C@@]1(C)CC(=O)C(O)=C(C)[C@@H]1C[C@H]3OC(=O)[C@H](OC(=O)C=C1CCCCC1)[C@@H]24 [15-O-(cyclohexylideneacetyl)-bruceolide] = 350
2) COC(=O)C12OCC34C(CC5C(C)=C(O)C(=O)CC5(C)C3C(O)C1O)OC(=O)C(OC(=O)OCC1COC(C)(C)O1)C24 (centres unmarked) [15-O-(solketyloxycarbonyl)-bruceolide] = 550
3) COC(=O)C12OCC34C(CC5C(C)=C(O)C(=O)CC5(C)C3C(O)C1O)OC(=O)C(OC(=O)CC1(O)CCCCC1)C24 (centres unmarked) = 450
4) C=CCOC(=O)OC1C(=O)OC2CC3C(C)=C(O)C(=O)CC3(C)C3C(O)C(OC(=O)OCC=C)C4(C(=O)OC)OCC23C14 (centres unmarked) = 350
5) CCCCCC(=O)OC1C(=O)OC2CC3C(C)=C(O)C(=O)CC3(C)C3C(O)C(O)C4(C(=O)OC)OCC23C14 (centres unmarked) [15-O-hexanoylbruceolide] = 200
6) CCC(O)(CC)CC(=O)OC1C(=O)OC2CC3C(C)=C(O)C(=O)CC3(C)C3C(O)C(O)C4(C(=O)OC)OCC23C14 (centres unmarked) = 500
7) COC(=O)[C@@]12OC[C@@]34C1[C@@H](OC(=O)C=C(C(C)C)C(C)C)C(=O)O[C@@H]3C[C@H]1C(C)=C(O)C(=O)C[C@]1(C)[C@H]4[C@@H](O)[C@@H]2O (some centres unmarked) = 450
8) COC(=O)[C@@]12OC[C@]34[C@H]([C@@H](O)[C@@H]1O)[C@@]1(C)CC(=O)C(O)=C(C)[C@@H]1C[C@H]3OC(=O)[C@H](OC(=O)C1=CCCCC1)[C@@H]24 [15-O-(1′-cyclohexenoyl)-bruceolide] = 350
9) COC(=O)C12OCC34C(CC5C(C)=C(O)C(=O)CC5(C)C3C(O)C1O)OC(=O)C(OC(=O)C=C1CCCC1)C24 (centres unmarked) [15-O-(cyclopentylideneacetyl)-bruceolide] = 450
10) COC(=O)C12OCC34C(CC5C(C)=C(O)C(=O)CC5(C)C3C(O)C1OC(=O)OCC1COC(C)(C)O1)OC(=O)C(OC(=O)OCC1COC(C)(C)O1)C24 (centres unmarked) = 600
11) COC(=O)[C@@]12OC[C@]34[C@H]([C@@H](O)[C@@H]1O)[C@@]1(C)CC(=O)C(O)=C(C)[C@@H]1C[C@H]3OC(=O)[C@H](OC(=O)CC(C)(C)C)[C@@H]24 [15-O-(3′,3′-dimethylbutanoyl)-bruceolide] = 350

---

Quick list: Product per entry.
system: Colon 38 (murine colon adenocarcinoma); assay: Disk diffusion assay, zone of inhibition, Colon 38; zone differentials, potency and product; type: cell-based; settings: potency multiplied by zone differentials
quantityMeasured: Product

1. C=CCOC(=O)OC1C(=O)OC2CC3C(C)=C(O)C(=O)CC3(C)C3C(O)C(OC(=O)OCC=C)C4(C(=O)OC)OCC23C14 (stereo not shown) = 650
2. COC(=O)C12OCC34C(CC5C(C)=C(O)C(=O)CC5(C)C3C(O)C1O)OC(=O)C(OC(=O)c1cc(C)oc1C)C24 (stereo not shown) = 4200
3. COC(=O)C12OCC34C(CC5C(C)=C(O)C(=O)CC5(C)C3C(O)C1O)OC(=O)C(OC(=O)OCC1COC(C)(C)O1)C24 (stereo not shown) [15-O-(solketyloxycarbonyl)-bruceolide] = 1900
4. COC(=O)[C@@]12OC[C@]34[C@H]([C@@H](O)[C@@H]1O)[C@@]1(C)CC(=O)C(O)=C(C)[C@@H]1C[C@H]3OC(=O)[C@H](OC(=O)CC1(O)CCCC1)[C@@H]24 = 5200
5. COC(=O)[C@@]12OC[C@]34[C@H]([C@@H](O)[C@@H]1O)[C@@]1(C)CC(=O)C(O)=C(C)[C@@H]1C[C@H]3OC(=O)[C@H](OC(=O)/C=C(\C)C(C)C)[C@@H]24 [Bruceantin, bruceantin] = 6300
6. CCC(O)(CC(=O)OC1C(=O)OC2CC3C(C)=C(O)C(=O)CC3(C)C3C(O)C(O)C4(C(=O)OC)OCC23C14)C(C)C (mixture of isomers) = 3450
7. CC(=O)O[C@H]1C(=O)[C@@]2(C)[C@H]([C@H](OC(=O)c3ccccc3)[C@]3(O)C[C@H](OC(=O)[C@H](O)[C@@H](NC(=O)c4ccccc4)c4ccccc4)C(C)=C1C3(C)C)[C@]1(OC(C)=O)CO[C@@H]1C[C@@H]2O = 3500
8. COC(=O)C12OCC34C(CC5C(C)=C(O)C(=O)CC5(C)C3C(O)C1O)OC(=O)C(OC(=O)C1=CCCC1)C24 (stereo not shown) [15-O-(1′-cyclopentenoyl)-bruceolide] = 750
9. COC(=O)[C@@]12OC[C@]34[C@H]([C@@H](O)[C@@H]1O)[C@@]1(C)CC(=O)C(O)=C(C)[C@@H]1C[C@H]3OC(=O)[C@H](OC(=O)CC(C)(C)C)[C@@H]24 [15-O-(3′,3′-dimethylbutanoyl)-bruceolide] = 3200
10. COC(=O)[C@@]12OC[C@]34[C@H]([C@@H](O)[C@@H]1O)[C@@]1(C)CC(=O)C(O)=C(C)[C@@H]1C[C@H]3OC(=O)[C@H](OC(=O)C=C1CCCCC1)[C@@H]24 [15-O-(cyclohexylideneacetyl)-bruceolide] = 2800

---

Quick list: % Kill, SK-N-AS per entry.
tested on: SK-N-AS; assay: MTT cytotoxicity assay (% kill), SK-N-AS; format: cell-based, human; details: 1.0 μg/mL, 1 h exposure, MTT after five days
quantityMeasured: % Kill, SK-N-AS (%)

1) COC(=O)C12OCC34C(CC5C(C)=C(O)C(=O)CC5(C)C3C(O)C1O)OC(=O)C(OC(=O)Cc1ccccc1)C24 (stereo not drawn) [15-O-phenylacetyl bruceolide] = 0
2) CCC(=CC(=O)O[C@H]1C(=O)O[C@@H]2C[C@H]3C(C)=C(O)C(=O)C[C@]3(C)[C@H]3[C@@H](O)[C@H](O)[C@@]4(C(=O)OC)OC[C@]32[C@@H]14)CC [15-O-(3′-ethyl-2′-pentene-oyl)-brucelide] = 0
3) COC(=O)C12OCC34C(CC5C(C)=C(O)C(=O)CC5(C)C3C(O)C1OC(=O)C=C(C)C(C)C)OC(=O)C(OC(=O)C=C(C)C(C)C)C24 (stereo not drawn) = 0
4) COC(=O)C12OCC34C(CC5C(C)=C(O)C(=O)CC5(C)C3C(O)C1O)OC(=O)C(OC(=O)c1cc(C)oc1C)C24 (stereo not drawn) = 0
5) CCC(O)(CC)CC(=O)OC1C(=O)OC2CC3C(C)=C(O)C(=O)CC3(C)C3C(O)C(O)C4(C(=O)OC)OCC23C14 (stereo not drawn) = 6
6) CCC(O)(CC(=O)OC1C(=O)OC2CC3C(C)=C(O)C(=O)CC3(C)C3C(O)C(O)C4(C(=O)OC)OCC23C14)C(C)C (mixture of isomers) = 0
7) CCCCCC(=O)OC1C(=O)OC2CC3C(C)=C(O)C(=O)CC3(C)C3C(O)C(O)C4(C(=O)OC)OCC23C14 (stereo not drawn) [15-O-hexanoylbruceolide] = 0
8) COC(=O)[C@@]12OC[C@@]34C1[C@@H](OC(=O)CC(O)(C(C)C)C(C)C)C(=O)O[C@@H]3C[C@H]1C(C)=C(O)C(=O)C[C@]1(C)[C@H]4[C@@H](O)[C@@H]2O (stereo partly drawn) = 3
9) COC(=O)C12OCC34C(CC5C(C)=C(O)C(=O)CC5(C)C3C(O)C1OC(=O)OCC1COC(C)(C)O1)OC(=O)C(OC(=O)OCC1COC(C)(C)O1)C24 (stereo not drawn) = 3
10) CCCCCCCCC=CCCCCCCCC(=O)OC1C(=O)OC2CC3C(C)=C(O)C(=O)CC3(C)C3C(O)C(O)C4(C(=O)OC)OCC23C14 (stereo not drawn) [15-O-(cis-9′-octadecenoyl)-bruceolide] = 0
11) COC(=O)C12OCC34C(CC5C(C)=C(O)C(=O)CC5(C)C3C(O)C1O)OC(=O)C(OC(=O)C=C1CCCC1)C24 (stereo not drawn) [15-O-(cyclopentylideneacetyl)-bruceolide] = 0
12) C=CCOC(=O)OC1C(=O)OC2CC3C(C)=C(O)C(=O)CC3(C)C3C(O)C(OC(=O)OCC=C)C4(C(=O)OC)OCC23C14 (stereo not drawn) = 0
